experiment: NCI Yeast Anticancer Drug Screen. Data for the sgs1 mgt1 strain (AID 161);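 also: 0% = growth of cultures given vehicle only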; conditions: S. cerevisiae sgs1 mgt1 strain, at 50.0 µM, hits give high values
About 79,000 compounds went through this panel and 15% of them were active in at least one assay; those are over-represented in the sample as a whole.
metric: growth inhibition (%)
All answers are understood in %, so give the number only.

Give the measured growth inhibition for O=C1OC2C(O1)C1(Cl)C(Cl)=C(Cl)C2(Cl)C1(Cl)Cl (stereo unspecified)
87.2

Give the measured growth inhibition for O=C1C=CC(=O)N1c1cccc2ccccc12 (tested in a mixture with another compound)
9.1

Give the measured growth inhibition for Nc1c(Br)cc(Br)c2c1C(=O)c1ccccc1C2=O
11.6

Give the measured growth inhibition for CCCCCCCC[N+](CCCC)(CCCC)CCCC (tested in a mixture with another compound)
99.5

Give the measured growth inhibition for OC1CCCC2CCC[N-]C12.OC1CCCC2CCC[N-]C12.[O]=[V][OH] (stereo unspecified)
91.5

Give the measured growth inhibition for CCC1(O)C(=O)OCc2c1cc(C)[nH]c2=O (stereo unspecified)
-5.5

---

Listed below: growth inhibition values for each entry.
experiment: NCI Yeast Anticancer Drug Screen. Data for the sgs1 strain (AID 173);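 also: 0% = growth of vehicle-only control cultures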; conditions: S. cerevisiae sgs1 mutant, at 33.0 µM, hits give high values
This is part of a sample that, as a whole, favours compounds with a hit. Of some 79,000 tested, about 15% had one in any assay.
All answers are understood in %, so give the number only.

Give the measured growth inhibition for COC(=O)c1c(C)ccc2c(O)c3c(cc12)C(=O)c1c2c(cc(O)c1C3=O)C1(C)OC(C)(O2)C(O)C(N(C)C)C1O (configuration not stated)
96

Give the measured growth inhibition for [N-]=[N+]=C1C(Cl)=C(Cl)C(Cl)=C1Cl
99

Give the measured growth inhibition for CSC(=Nc1ccccc1)N(c1ccccc1)c1nc(=[N+](C)C)ss1
98

Give the measured growth inhibition for CC1CC(C)CC(C)C(O)/C(C#N)=C/C=C/CC(C2CCCC2C(=O)O)OC(=O)CC(O)C(C)C1 (configuration not stated)
97

Give the measured growth inhibition for CCOP(=O)(CC(C)P(=O)(OCC)OCC)OCC.C[CH2][Sn]([Cl])([Cl])[CH2]C (configuration not stated)
85

Give the measured growth inhibition for CC(=O)O/C(=C1\C[C@H]2[C@@H]3CC=C4C[C@@H](OC(C)=O)CC[C@]4(C)[C@H]3CC[C@]2(C)C1=O)C(F)(F)F
3

Give the measured growth inhibition for CCC1(O)C(=O)OCc2c1cc1n(c2=O)Cc2cc3cc(Cl)ccc3nc2-1 (configuration not stated)
83

---

Listed below: growth inhibition values for each entry.
assay: NCI Yeast Anticancer Drug Screen. Data for the mec2-1 strain (AID 157); settings: S. cerevisiae mec2-1 strain, at 5.0 µM (retest, dose inferred, filed as 0.5), hits give high values
Compounds without any hit were thinned out: in the full panel of roughly 79,000, 15% have a hit.
All answers are understood in %, so give the number only.

Give the measured growth inhibition for COC(=O)CC1(C(=O)O)CC2(Cl)C(Cl)=C(Cl)C1(Cl)C2(Cl)Cl (stereo not drawn)
10

Give the measured growth inhibition for [CH3][Sn]([CH3])([Cl])[c]1cc[c]([Sn]([CH3])([CH3])[Cl])cc1
-1

Give the measured growth inhibition for CC(C)c1cccc(C(C)C)c1NC(=O)C(=O)CC(=O)CC(c1ccccc1)c1c(O)c2ccccc2oc1=O (stereo not drawn)
-12

Give the measured growth inhibition for CCOC(=O)c1ccccc1N
2

Give the measured growth inhibition for CC(=O)OC1CCC2(C)C3CCC4(C)C(OC(=O)c5ccccc5)CCC4C3CC(Br)C2(O)C1 (stereo not drawn)
27

Give the measured growth inhibition for C/C(=N\O)C(CN(C)C)C(c1ccccc1)c1c(O)c2ccccc2oc1=O (stereo not drawn)
12

Give the measured growth inhibition for CC[CH2][Sn]([Br])([Br])[CH2]CC
21

Give the measured growth inhibition for O=C(O)/C=C\c1c[nH]c2ccccc12
-2

Give the measured growth inhibition for CC(C)NCC(O)c1ccccc1Cl (stereo not drawn)
2

---

Listed below: growth inhibition values for each entry.
test: NCI Yeast Anticancer Drug Screen. Data for the mec2-1 strain (AID 157); settings: S. cerevisiae mec2-1 strain, at 5.0 µM (retest, dose inferred, filed as 0.5), hits give high values
The panel holds about 79,000 compounds, 15% with a hit somewhere; the sample as a whole holds those more often.
All answers are understood in %, so give the number only.

Illustrative cases are given below, each with its answer.
CC[C@](O)(C(=O)O)c1cc2n(c(=O)c1CO)Cc1cc3ccccc3nc1-2; 95
Nc1ncc(CCCCc2ccc(NC(=O)Nc3ccc(S(=O)(=O)F)cc3)cc2)c(N)n1; -15
C=CCCCCCCCCC(=O)O (tested in a mixture with another compound); -3
C/C(CCl)=N/NC1=NC(c2ccccc2Cl)P(=O)(NCCCNP2(=O)SC(N/N=C(/C)CCl)=NC2c2ccccc2Cl)S1 (stereo not drawn); -12
Clc1ccc(-c2cc(=[N+]3CC[N+](=c4cc(-c5ccc(Cl)cc5)ss4)CC3)ss2)cc1; -158
O=[N+]([O-])c1oc2ccc3ccccc3c2c1CCO; 97
[I][Hg][CH2]C1COCC([CH2][Hg][I])O1 (stereo not drawn); 4
CC(Cc1ccccc1)N(C)Cc1ccc(-c2ccc(Cl)cc2)o1 (stereo not drawn); 11

Give the measured growth inhibition for Cc1ccc(S)cc1.[Pb]
2

Give the measured growth inhibition for NCC(O)c1cccc(O)c1 (stereo not drawn)
-12

Give the measured growth inhibition for [I][Hg][I].c1ccc(N=P(c2ccccc2)(c2ccccc2)c2ccccc2)cc1
100

---

assay: NCI Yeast Anticancer Drug Screen. Data for the cln2 rad14 strain (AID 165);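 also: 0% = growth equal to vehicle treated cultures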; details: S. cerevisiae cln2 rad14 strain, at 50.0 µM, hits give high values
About 79,000 compounds went through this panel and 15% of them were active in at least one assay; those are over-represented in the sample as a whole.
growth inhibition below 50% gives no (0); growth inhibition at or above it gives yes (1).

Solved cases (4 shown):
NC1=C(c2nc(-c3ccccc3)cs2)C(c2ccc(Br)cc2)c2c(c3ccccc3oc2=O)O1 (stereo unspecified); no (0)
CC1C(=O)OCC1(C)O (stereo unspecified); no (0)
CCC[CH2][Sn]([CH2]CCC)([S]C#N)[S]C#N; yes (1)
CC(=O)OC1CCC2(C)C3=C(CCC2C1(C)C)C1(C)CCC(C(C)CCC2NC2(C)C)C1(C)CC3 (stereo unspecified); no (0)

Hi team, for CC(=O)C(Br)C(C)=O.CC(=O)C(Br)C(C)=O.CC(=O)C(Br)C(C)=O.[Rh] , is the recorded growth inhibition at or above 50%?
yes (1)

---

Listed below: growth inhibition values for each entry.
experiment: NCI Yeast Anticancer Drug Screen. Data for the cln2 rad14 strain (AID 165);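 also: 0% = growth equal to vehicle treated cultures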; settings: S. cerevisiae cln2 rad14 strain, at 50.0 µM, hits give high values
The panel holds about 79,000 compounds, 15% with a hit somewhere; the sample as a whole holds those more often.
All answers are understood in %, so give the number only.

[C](#Cc1ccccc1)[Hg][C]#Cc1ccccc1; 84.9

Give the measured growth inhibition for Cc1cccc2cc3ccccc3c[n+]12
62.2

Give the measured growth inhibition for CCCCCNC(=O)c1c(O)[nH]c(=S)[nH]c1=O
61.3

Give the measured growth inhibition for CC#N.FC(F)(F)C#CC(F)(F)F.FC(F)(F)C#CC(F)(F)F.FC(F)(F)C#CC(F)(F)F.[W]
99.2

Give the measured growth inhibition for C/C1=C\[C@@H](O)C(=O)/C=C/C=C\c2csc(n2)[C@@H](C)NC(=O)C[C@@]2(CC1)S(=O)SC(=O)[C@]2(C)O (some centres not stated)
89.2

Give the measured growth inhibition for Cn1cnc(C(=N)[Se])c1N
-24.8

Give the measured growth inhibition for Nc1cc(Cl)ccc1C(=O)c1ccccc1Cl
96.8

Give the measured growth inhibition for O=C1C=CC(=O)C1(Br)Br
99.2

---

Listed below: growth inhibition values for each entry.
assay: NCI Yeast Anticancer Drug Screen. Data for the mlh1 strain (AID 171);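 also: 0% = growth of vehicle-treated control cultures of the same strain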; details: S. cerevisiae mlh1 strain growth inhibition; at 100.0 µM; hits give high values
The panel holds about 79,000 compounds, 15% with a hit somewhere; the sample as a whole holds those more often.
All answers are understood in %, so give the number only.

Illustrative cases are given below, each with its answer.
CCNCC(=O)O[C@]1(CC)C(=O)OCc2c1cc1n(c2=O)Cc2cc3ccccc3nc2-1; -21
C[CH2][Sn]1([CH2]C)[O]C2C(O)OC(CO)C(O)C2[O]1 (centres undefined); 39
CC12CCC(C1)C(C)(C)C2OC(=O)c1ccccc1N (centres undefined); 38
COC(=O)C1=C(C(=O)OC)SC2(S1)C(C(=O)OC)=C(C(=O)OC)Sc1c2ssc1=O; 92
O=[N+]([O-])O.[NH-]C1CCCCC1[NH-].[NH-]C1CCCCC1[NH-].[NH-]C1CCCCC1[NH-].[OH-].[OH-].[OH-].[Pt+4].[Pt+4].[Pt+4] (centres undefined); 12
COc1cc([C@@H]2c3cc4c(cc3C[C@@H]3COC(=O)C32)OCO4)cc(OC)c1O (some centres undefined); 93

Give the measured growth inhibition for Cc1ccc2c(c1)C1(C)c3cc(C)ccc3SP1S2 (centres undefined)
39

Give the measured growth inhibition for Cc1cc[n+](C2=C(Nc3cccc(C(F)(F)F)c3)C(=O)c3ccccc3C2=O)cc1
10

Give the measured growth inhibition for O=c1oc2ccccc2c(O)c1C(c1ccc2c(c1)Cc1ccccc1-2)c1c(O)c2ccccc2oc1=O
98
